Where do the numbers come from? From ChEMBL document CHEMBL3272017.

test system: Rattus norvegicus; assay: Antagonism of morphine-induced analgesia in sc dosed rat
Catalogue of ED50 readings, one per entry.

{"compound": "C=CCN1CC[C@]23c4c5ccc(O)c4O[C@H]2[C@@H](O)C=C[C@H]3[C@H]1C5.Cl [NALORPHINE HYDROCHLORIDE]", "ED50 / mg/kg": 0.37}
{"compound": "CS(=O)(=O)Nc1cc(CCNC2CC2)ccc1O.Cl", "ED50 / mg/kg": 0.21}
{"compound": "CS(=O)(=O)Nc1cc(C(O)CNC2CC2)ccc1O.Cl (stereo in doubt; 44)", "ED50 / mg/kg": 0.275}
{"compound": "CC(C)(Cc1ccccc1)NCC(O)c1ccc(O)c(NS(C)(=O)=O)c1.Cl (centres undefined) [ZINTEROL HYDROCHLORIDE]", "ED50 / mg/kg": 18.8}

* * *

tested on: Rattus norvegicus; test: Antagonism of morphine-induced analgesia in sc dosed rat

{"compound": "CS(=O)(=O)Nc1cc(C(O)CNC2(Cc3ccccc3)CC2)ccc1O.Cl (stereo not drawn)", "system": "Rattus norvegicus", "ED50, mg/kg": 4.7}
{"compound": "CC1(NCC(O)c2ccc(O)c(NS(C)(=O)=O)c2)CC1.Cl (stereo not drawn)", "system": "Rattus norvegicus", "ED50, mg/kg": 1}
{"compound": "CN(C)S(=O)(=O)Nc1cc(C(O)CNC2CC2)ccc1O.Cl (stereo not drawn)", "system": "Rattus norvegicus", "ED50, mg/kg": 0.72}

* * *

Catalogue of ED50 readings, one per entry.
system: Mus musculus; test: Reversal of reserpine-induced ptosis in po dosed mouse; format: functional; conditions: Mus musculus, po; read-out: ED50

{"compound": "CS(=O)(=O)Nc1cc(C(O)CNC2CC2)cc(Cl)c1O.Cl (stereo not given)", "system": "Mus musculus", "ED50, mg/kg": 0.082}
{"compound": "CCOC(CNC1CC1)c1ccc(O)c(NS(C)(=O)=O)c1.Cl (stereo not given)", "system": "Mus musculus", "ED50, mg/kg": 9.6}
{"compound": "CS(=O)(=O)Nc1cc(C(O)CNC2(Cc3ccccc3)CC2)ccc1O.Cl (stereo not given)", "system": "Mus musculus", "ED50, mg/kg": 0.32}
{"compound": "C[C@H](NC1CC1)[C@H](O)c1ccc(O)c(NS(C)(=O)=O)c1.Cl (relative stereo)", "system": "Mus musculus", "ED50, mg/kg": 0.76}
{"compound": "CS(=O)(=O)Nc1cccc(C(O)CNC2CC2)c1.Cl (stereo not given)", "system": "Mus musculus", "ED50, mg/kg": 0.8}
{"compound": "CN(C)S(=O)(=O)Nc1cc(C(O)CNC2CC2)ccc1O.Cl (stereo not given)", "system": "Mus musculus", "ED50, mg/kg": 1.3}
{"compound": "CS(=O)(=O)Nc1cc(C(O)CNC2CCC2)ccc1O.Cl (stereo not given)", "system": "Mus musculus", "ED50, mg/kg": 24}
{"compound": "CC(N)Cc1ccccc1.O=S(=O)(O)O (racemic) [AMPHETAMINE SULFATE]", "system": "Mus musculus", "ED50, mg/kg": 1.94}
{"compound": "CC[C@H](NC1CC1)[C@H](O)c1ccc(O)c(NS(C)(=O)=O)c1.Cl (relative stereo)", "system": "Mus musculus", "ED50, mg/kg": 8.9}
{"compound": "Cc1cc(C(O)CNC2CC2)cc(NS(C)(=O)=O)c1O.Cl (stereo not given)", "system": "Mus musculus", "ED50, mg/kg": 0.67}
